Measured values drawn from patent US11041000B2 for this set.

Experiment: Stability in human fecal homogenate
Type: in vitro ADME
Conditions: 20% fecal homogenate (supernatant), pH 6.8, 20% human fecal homogenate, anaerobic, 37° C., read-out: t½: Human Feces anaerobic (converted)
Bridge positions count the residues as written; N and C are the ends. Square brackets hold non-standard residues; d marks the D form. Peptide text beside a SMILES is read from it. Trp(7-Me) = Cc1cccc2c(C[C@H](N)C(=O)O)c[nH]c12; 2Nal = N[C@@H](Cc1ccc2ccccc2c1)C(=O)O; AEF = NCCOc1ccc(C[C@H](N)C(=O)O)cc1; Cit = NC(=O)NCCC[C@H](N)C(=O)O; Pen = CC(C)(S)[C@H](N)C(=O)O; αMeK = C[C@](N)(CCCCN)C(=O)O; Aib = CC(C)(N)C(=O)O; βAla = NCCC(=O)O
Catalogue of half-life at 20 μM values
Quantity Measured: half-life at 20 μM

[[record]]
molecule = "CC(=O)N[C@@H]1C(=O)N[C@@H](CC(N)=O)C(=O)N[C@@H]([C@@H](C)O)C(=O)N[C@@H](Cc2c[nH]c3c(C)cccc23)C(=O)N[C@@H](CCCNC(N)=O)C(=O)N[C@H](C(=O)N[C@@H](Cc2ccc(OCCN)cc2)C(=O)N[C@@H](Cc2ccc3ccccc3c2)C(=O)N[C@@](C)(CCCCN)C(=O)N[C@@H](CCCNC(N)=O)C(=O)NCCC(=O)NCCC(N)=O)C(C)(C)SSC1(C)C [compound 281] (Ac-[Pen]NT[Trp(7-Me)][Cit][Pen][AEF][2Nal][αMeK][Cit][βAla][βAla]-NH2; disulfide 1-6)"
quantity_measured = "half-life at 20 μM"
recorded_measurement = "> 1440 min"

[[record]]
molecule = "CC(=O)NCCCC[C@H](NC(=O)[C@](C)(CCCCN)NC(=O)[C@H](Cc1ccc2ccccc2c1)NC(=O)[C@H](Cc1ccc(OCCN)cc1)NC(=O)[C@H]1NC(=O)[C@H](CCCNC(N)=O)NC(=O)[C@H](Cc2c[nH]c3c(C)cccc23)NC(=O)[C@H]([C@@H](C)O)NC(=O)[C@H](CC(N)=O)NC(=O)[C@@H](NC(C)=O)C(C)(C)SSC1(C)C)C(=O)N[C@@H](CC(N)=O)C(=O)NC(C)(C)C(=O)N[C@H](CCCCN)C(N)=O [compound 344] (Ac-[Pen]NT[Trp(7-Me)][Cit][Pen][AEF][2Nal][αMeK]K(Ac)N[Aib][dK]-NH2; disulfide 1-6)"
quantity_measured = "half-life at 20 μM"
recorded_measurement = "> 1440 min"

[[record]]
molecule = "CC(=O)NCCCC[C@H](NC(=O)[C@](C)(CCCCN)NC(=O)[C@H](Cc1ccc2ccccc2c1)NC(=O)[C@H](Cc1ccc(OCCN)cc1)NC(=O)[C@H]1NC(=O)[C@H](CCC(N)=O)NC(=O)[C@H](Cc2c[nH]c3c(C)cccc23)NC(=O)[C@H]([C@@H](C)O)NC(=O)[C@H](CC(N)=O)NC(=O)[C@@H](NC(C)=O)C(C)(C)SSC1(C)C)C(=O)N[C@@H](CC(N)=O)C(=O)NCCC(N)=O [compound 267]"
quantity_measured = "half-life at 20 μM"
recorded_measurement = "> 1440 min"

[[record]]
molecule = "CC(=O)NCCCC[C@@H]1NC(=O)[C@H](Cc2c[nH]c3c(C)cccc23)NC(=O)[C@H]([C@@H](C)O)NC(=O)[C@H](CC(N)=O)NC(=O)[C@@H](NC(C)=O)C(C)(C)SSC(C)(C)[C@@H](C(=O)N[C@@H](Cc2ccc(OCCN)cc2)C(=O)N[C@@H](Cc2ccc3ccccc3c2)C(=O)N[C@@](C)(CCCCN)C(=O)N[C@@H](CCCCNC(C)=O)C(=O)N[C@@H](CC(N)=O)C(=O)N[C@@H](CC(C)C)C(N)=O)NC1=O [compound 244]"
quantity_measured = "half-life at 20 μM"
recorded_measurement = "900 min"

[[record]]
molecule = "CC(=O)NCCCC[C@@H]1NC(=O)[C@H](Cc2c[nH]c3c(C)cccc23)NC(=O)[C@H]([C@@H](C)O)NC(=O)[C@H](CC(N)=O)NC(=O)[C@@H](NC(C)=O)C(C)(C)SSC(C)(C)[C@@H](C(=O)N[C@@H](Cc2ccc(OCCN)cc2)C(=O)N[C@@H](Cc2ccc3ccccc3c2)C(=O)N[C@@](C)(CC(C)C)C(=O)N[C@@H](CCCCNC(C)=O)C(=O)N[C@@H](CC(N)=O)C(=O)N[C@H](CC(N)=O)C(N)=O)NC1=O [compound 354]"
quantity_measured = "half-life at 20 μM"
recorded_measurement = "> 1440 min"


----------
Catalogue of half-life at 20 μM values
Assay: Stability in cynomolgus monkey fecal homogenate
Format: in vitro ADME
Settings: cynomolgus monkey, 20% fecal homogenate (supernatant), anaerobic, pH 6.8, 20% cynomolgus monkey fecal homogenate, 37° C., read-out: t½: Monkey Feces anaerobic (converted)
Bridge positions count the residues as written; N and C are the ends. Square brackets hold non-standard residues; d marks the D form. Peptide text beside a SMILES is read from it. Trp(7-Me) = Cc1cccc2c(C[C@H](N)C(=O)O)c[nH]c12; 2Nal = N[C@@H](Cc1ccc2ccccc2c1)C(=O)O; AEF = NCCOc1ccc(C[C@H](N)C(=O)O)cc1; Cit = NC(=O)NCCC[C@H](N)C(=O)O; αMeL = CC(C)C[C@](C)(N)C(=O)O; Pen = CC(C)(S)[C@H](N)C(=O)O; αMeK = C[C@](N)(CCCCN)C(=O)O; Aib = CC(C)(N)C(=O)O; βAla = NCCC(=O)O
Quantity Measured: half-life at 20 μM

[[record]]
compound = "CC(=O)NCCCC[C@H](NC(=O)[C@](C)(CC(C)C)NC(=O)[C@H](Cc1ccc2ccccc2c1)NC(=O)[C@H](Cc1ccc(OCCN)cc1)NC(=O)[C@H]1NC(=O)[C@H](CCC(N)=O)NC(=O)[C@H](Cc2c[nH]c3c(C)cccc23)NC(=O)[C@H]([C@@H](C)O)NC(=O)[C@H](CC(N)=O)NC(=O)[C@@H](NC(C)=O)C(C)(C)SSC1(C)C)C(=O)N[C@@H](C(=O)NCCC(N)=O)[C@H](C)O"
recorded_measurement = "> 24 h"

[[record]]
compound = "CC(=O)NCCCC[C@H](NC(=O)[C@](C)(CC(C)C)NC(=O)[C@H](Cc1ccc2ccccc2c1)NC(=O)[C@H](Cc1ccc(OCCN)cc1)NC(=O)[C@H]1NC(=O)[C@H](CCC(N)=O)NC(=O)[C@H](Cc2c[nH]c3c(C)cccc23)NC(=O)[C@H]([C@@H](C)O)NC(=O)[C@H](CC(N)=O)NC(=O)[C@@H](NC(C)=O)C(C)(C)SSC1(C)C)C(=O)N1CCC[C@H]1C(=O)NCCC(N)=O"
recorded_measurement = "> 24 h"

[[record]]
compound = "CC(=O)NCCCC[C@H](NC(=O)[C@](C)(CCCCN)NC(=O)[C@H](Cc1ccc2ccccc2c1)NC(=O)[C@H](Cc1ccc(OCCN)cc1)NC(=O)[C@H]1NC(=O)[C@H](CCC(N)=O)NC(=O)[C@H](Cc2c[nH]c3c(C)cccc23)NC(=O)[C@H]([C@@H](C)O)NC(=O)C(C)(C)NC(=O)[C@@H](NC(C)=O)C(C)(C)SSC1(C)C)C(=O)N[C@@H](CC(N)=O)C(=O)NCCC(N)=O [compound 240] (Ac-[Pen][Aib]T[Trp(7-Me)]Q[Pen][AEF][2Nal][αMeK]K(Ac)N[βAla]-NH2; disulfide 1-6)"
recorded_measurement = "3 h"

[[record]]
compound = "CC(=O)NCCCC[C@H](NC(=O)[C@](C)(CC(C)C)NC(=O)[C@H](Cc1ccc2ccccc2c1)NC(=O)[C@H](Cc1ccc(OCCN)cc1)NC(=O)[C@H]1NC(=O)[C@H](CCCNC(N)=O)NC(=O)[C@H](Cc2c[nH]c3c(C)cccc23)NC(=O)[C@H]([C@@H](C)O)NC(=O)[C@H](CC(N)=O)NC(=O)[C@@H](NC(C)=O)C(C)(C)SSC1(C)C)C(=O)N[C@@H](CC(N)=O)C(=O)NCCC(N)=O [compound 227] (Ac-[Pen]NT[Trp(7-Me)][Cit][Pen][AEF][2Nal][αMeL]K(Ac)N[βAla]-NH2; disulfide 1-6)"
recorded_measurement = "> 24 h"

[[record]]
compound = "CC(=O)NCCCC[C@H](NC(=O)C1(NC(=O)[C@H](Cc2ccc3ccccc3c2)NC(=O)[C@H](Cc2ccc(OCCN)cc2)NC(=O)[C@H]2NC(=O)[C@H](CCC(N)=O)NC(=O)[C@H](Cc3c[nH]c4c(C)cccc34)NC(=O)[C@H]([C@@H](C)O)NC(=O)[C@H](CC(N)=O)NC(=O)[C@@H](NC(C)=O)C(C)(C)SSC2(C)C)CCNCC1)C(=O)N[C@@H](CC(N)=O)C(=O)NCCC(N)=O"
recorded_measurement = "8 h"

[[record]]
compound = "CC(=O)N[C@@H]1C(=O)N[C@@H](CC(N)=O)C(=O)N[C@@H]([C@@H](C)O)C(=O)N[C@@H](Cc2c[nH]c3c(C)cccc23)C(=O)N[C@@H](CCCNC(N)=O)C(=O)N[C@H](C(=O)N[C@@H](Cc2ccc(OCCN)cc2)C(=O)N[C@@H](Cc2ccc3ccccc3c2)C(=O)N[C@@](C)(CCCCN)C(=O)N[C@@H](CCCNC(N)=O)C(=O)NCCC(=O)NCCC(N)=O)C(C)(C)SSC1(C)C [compound 281] (Ac-[Pen]NT[Trp(7-Me)][Cit][Pen][AEF][2Nal][αMeK][Cit][βAla][βAla]-NH2; disulfide 1-6)"
recorded_measurement = "> 24 h"

[[record]]
compound = "CC(=O)NCCCC[C@H](NC(=O)[C@](C)(CCCCN)NC(=O)[C@H](Cc1ccc2ccccc2c1)NC(=O)[C@H](Cc1ccc(OCCN)cc1)NC(=O)[C@H]1NC(=O)[C@H](CCCCNC(=O)C(C)(C)N)NC(=O)[C@H](Cc2c[nH]c3c(C)cccc23)NC(=O)[C@H]([C@@H](C)O)NC(=O)[C@H](CC(N)=O)NC(=O)[C@@H](NC(C)=O)C(C)(C)SSC1(C)C)C(=O)N[C@@H](CC(N)=O)C(=O)N[C@H](CC(C)C)C(N)=O"
recorded_measurement = "> 24 h"

